Target: T1, cynomolgus monkey IgE (in cynomolgus serum, Harlan Sera-Lab Ltd) (cynomolgus monkey)
T1 construct: Serum was the source of IgE; eight serum samples; also called cynomolgus IgE; Cyno 1 to Cyno 8 serum samples
Test: capture ELISA, Test 1, Cyno 5
MEASURED_PROPERTY: IgE concentration detected (ng/mL)
Please give a number only; it is taken to be in ng/mL.

In the examples that follow, each entry is paired with its recorded IgE concentration detected.
5.396.1 (recombinant) (antibody, human IgG2, kappa, V domains shown, Fully human IgG2 kappa, expressed in 293 Freestyle cells; also called recombinant 5.396.1) VH: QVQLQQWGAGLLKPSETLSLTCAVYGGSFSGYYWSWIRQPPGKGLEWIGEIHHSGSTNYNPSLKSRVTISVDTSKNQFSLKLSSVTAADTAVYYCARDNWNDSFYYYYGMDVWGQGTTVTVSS VL: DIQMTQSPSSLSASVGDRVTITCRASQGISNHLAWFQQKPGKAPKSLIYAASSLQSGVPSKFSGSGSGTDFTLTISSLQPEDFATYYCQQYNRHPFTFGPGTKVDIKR ... 37
6.605.1 Hc-H3Q, M13K, D82E Lc-T25A, T53S (antibody, human IgG2, kappa, V domains shown, Human IgG2 kappa; leader omitted; also called 6.605.1 (H3Q, M13K, D82E-T25A, T53S); 6.605.1 QKE/AS) VH: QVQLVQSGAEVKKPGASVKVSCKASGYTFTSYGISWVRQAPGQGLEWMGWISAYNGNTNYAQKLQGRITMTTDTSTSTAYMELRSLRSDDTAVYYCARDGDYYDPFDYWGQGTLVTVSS VL: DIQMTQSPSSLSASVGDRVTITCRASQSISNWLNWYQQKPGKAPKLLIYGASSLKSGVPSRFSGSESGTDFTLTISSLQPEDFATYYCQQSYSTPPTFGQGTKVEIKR ... 173
6.605.1 (recombinant) (antibody, human IgG2, kappa, V domains shown, Human IgG2 kappa; leader omitted; also called recombinant 6.605.1) VH: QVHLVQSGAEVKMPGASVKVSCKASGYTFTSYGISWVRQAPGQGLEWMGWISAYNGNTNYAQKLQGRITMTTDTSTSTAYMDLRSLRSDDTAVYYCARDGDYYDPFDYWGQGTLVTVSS VL: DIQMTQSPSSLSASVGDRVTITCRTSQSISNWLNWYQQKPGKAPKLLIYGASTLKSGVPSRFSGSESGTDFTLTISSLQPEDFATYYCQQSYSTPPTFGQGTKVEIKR ... 140

Briefly, IgE concentration detected measured for 5.396.1 Hc-S103N Lc-K61R (antibody, human IgG2, kappa, V domains shown, Human IgG2 kappa; leader omitted; also called 5.396.1 (S103N/K61R); 5.396.1 S103N/K61R) VH: QVQLQQWGAGLLKPSETLSLTCAVYGGSFSGYYWSWIRQPPGKGLEWIGEIHHSGSTNYNPSLKSRVTISVDTSKNQFSLKLSSVTAADTAVYYCARDNWNDNFYYYYGMDVWGQGTTVTVSS VL: DIQMTQSPSSLSASVGDRVTITCRASQGISNHLAWFQQKPGKAPKSLIYAASSLQSGVPSRFSGSGSGTDFTLTISSLQPEDFATYYCQQYNRHPFTFGPGTKVDIKR : 57
